- target.of.assay: human ether-à-go-go-related gene (hERG) potassium channel (human, UniProt Q12809);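 further: peak tail current of the secondary pulse compared with the same well before compound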
- Sequence (Q12809 whole entry, looked up): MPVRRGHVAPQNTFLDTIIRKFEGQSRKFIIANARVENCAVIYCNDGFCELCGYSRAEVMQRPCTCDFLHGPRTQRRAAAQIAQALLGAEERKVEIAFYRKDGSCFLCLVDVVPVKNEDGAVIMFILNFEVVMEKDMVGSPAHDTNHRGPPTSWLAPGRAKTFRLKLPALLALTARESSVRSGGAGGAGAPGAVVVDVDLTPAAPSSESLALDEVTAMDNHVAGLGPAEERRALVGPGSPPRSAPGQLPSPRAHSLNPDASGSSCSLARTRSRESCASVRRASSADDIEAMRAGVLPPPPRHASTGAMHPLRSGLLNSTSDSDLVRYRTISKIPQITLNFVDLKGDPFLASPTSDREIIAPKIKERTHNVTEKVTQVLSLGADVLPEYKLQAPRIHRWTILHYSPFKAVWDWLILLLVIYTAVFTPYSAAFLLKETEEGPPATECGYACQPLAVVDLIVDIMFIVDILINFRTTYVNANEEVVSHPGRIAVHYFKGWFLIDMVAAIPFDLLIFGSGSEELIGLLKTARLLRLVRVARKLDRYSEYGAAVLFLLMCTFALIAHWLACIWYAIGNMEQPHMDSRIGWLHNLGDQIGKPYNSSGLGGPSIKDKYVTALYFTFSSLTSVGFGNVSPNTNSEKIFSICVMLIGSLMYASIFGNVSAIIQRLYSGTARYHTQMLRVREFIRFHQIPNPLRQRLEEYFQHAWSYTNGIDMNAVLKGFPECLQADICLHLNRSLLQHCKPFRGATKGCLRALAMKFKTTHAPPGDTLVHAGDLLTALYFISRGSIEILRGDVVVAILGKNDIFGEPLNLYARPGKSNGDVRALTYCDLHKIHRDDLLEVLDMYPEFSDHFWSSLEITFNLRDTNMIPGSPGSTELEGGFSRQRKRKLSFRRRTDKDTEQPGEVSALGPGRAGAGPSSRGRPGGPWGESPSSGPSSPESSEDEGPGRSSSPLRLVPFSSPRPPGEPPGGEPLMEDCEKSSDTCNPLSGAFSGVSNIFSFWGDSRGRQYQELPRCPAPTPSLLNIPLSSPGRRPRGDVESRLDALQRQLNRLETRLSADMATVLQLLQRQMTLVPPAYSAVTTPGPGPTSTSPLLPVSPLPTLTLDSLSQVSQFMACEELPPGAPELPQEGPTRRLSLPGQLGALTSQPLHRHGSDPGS
- protocol.notes: primary screen, population patch clamp on CHO cells stably expressing hERG; higher = less effect of the substance
About 14,000 (4.5%) of roughly 310,000 compounds showed an effect of 50% or more. The effect is printed as a negative number. Shown is part of a subset that was picked to be rich in strong results.
Some molecules, each annotated with its measured hERG current change (%, negative = inhibition) at 10uM.
Show the value, then the unit it is measured in.

Example results:
molecule	target.of.assay	measured
Cc1ccc(-n2nnnc2SCC(=O)NNC(=O)c2ccco2)cc1C	human ether-à-go-go-related gene (hERG) potassium channel (human, UniProt Q12809)	24.3%
CC(=O)c1cccc(NC(=O)N2C3CCCC2CC(NC(=O)C2CC2)C3)c1 (stereo not shown)	human ether-à-go-go-related gene (hERG) potassium channel (human, UniProt Q12809)	17.2%
Cc1cc(=O)oc2cc(OCC(=O)NCCCn3ccnc3)ccc12	human ether-à-go-go-related gene (hERG) potassium channel (human, UniProt Q12809)	7.58%

So what does the record say about hERG current change (%, negative = inhibition) at 10uM for CCCn1c(NCc2ccccc2NS(=O)(=O)c2ccc(C)cc2)nc2ccccc21 ?
6.84%

# input molecule: COc1ccc(-c2cc(=O)oc3cc(OCC(=O)NCCCn4ccnc4)ccc23)cc1 ; wanted: its hERG current change (%, negative = inhibition) at 10uM
-65.4%

Sample O=C(O)c1ccc(CSc2nnnn2-c2ccc(F)cc2)cc1 — what was its hERG current change (%, negative = inhibition) at 10uM?
-9.84%

What value of measured hERG current change (%, negative = inhibition) at 10uM is listed for CCN(CC)CCn1c(N)nc2ccccc21.Cl ?
15.4%

Cited source for all entries: paper PMC4336329
